Experiment: soluble on expression in E. coli; label from the status in PepcDB or PDB records
property-label: soluble on expression in E. coli

1) MKIIKGAFPVLITPMDEFQEINWNGVKQNVNYFIEQKVAGIIINGSTGEFVSLSKEERFKMVETVLKEVNGRIPVIVGTAAETTKETIEFTKHAETHGADCALIINSYYCKPKEEEIYFHFKEISNAVNIPIMLYNNPFTSGVDMSTELMLRIGKDCENVTHIKESSGDIRKARDLVRQGEGAFQVFCGSEDLVMESYLVGATGWVSVAGNVVPGLVTKMYEHFQNGELEKAWEINDAILPLCEFLEGSGKYVQIVKRSMELQGQAGGPSRYPRLGLTEEEDQKLQAIISKIAAHAAV : not soluble
2) MSLQLPISQYNELLQKKLEKLTALLHPFNAPDIQVFDSPTSHYRMRAEFRIWHEQDDFYHIMFDQATLQRYRVDEFPIASMLINRMMQTLLPLLKQQEVLHKKLFQIDYLSTLSNKIIVSLLYHKTLTEEWESAAKNLKDLLEKQDFDVQIIGRASKQKICFEQDYVDEVLPVNGRNYVYRQVENSFTQPNATVNCKMLEWAIDCTQNSEGDLLELYCGNGNFSIALAQNFRKVLATEIAKPSVAAAQFNIAENKVDNLQIIRMSAEEFTQAMNGVRAFNRLKGIDLKSYECNTIFVDPPRAGLDPDTVKLVQNYDRILYISCNPHTLCDNLVELSKTHRIEKAALFDQFPYTDHMESGLWLIRKEGHHHHHH : soluble
3) SLESEGRSPIFTHLVTSLKGLWTLRAFGRQPYFETLFHKALNLHTANGGAMFSLIYKKTLKLSSRVLDKISIGQLVSLLSNNLNKFDEGGGGAINKIQDFLQKQEYKTLEYNLTTTEVVMENVTAFWEEGFGELFEKAKQNNNNRKTSNGDDSLFFSNFSLLGTPVLKDINFKIERGQLLAVAGSTGAGKTSLLMMIMGELEPSEGKIKHSGRISFCSQFSWIMPGTIKENIIFGVSYDEYRYRSVIKACQLEEDISKFAEKDNIVLGEGGITLSGGQRARISLARAVYKDADLYLLDSPFGYLDVLTEKEIFESCVCKLMANKTRILVTSKMEHLKKADKILILHEGSSYFYGTFSELQNLQPDFSSKLMG : soluble
4) MTTEKINLLDFDRKGLRTFFAEELGEKAFRAEQVMKWIYHFGCDDFDQMNNINKQLREKLKAKCEIRAPYVSEAQHSADGTIKWAMRVGDQDVETVYIPEDDRATLCVSSQVGCALECKFCSTAQQGFNRNLRVSEIIGQVWRAAREIGLEKETGRRPITNVVMMGMGEPLLNMKNLIPALEIMLDDLGFGLSKRRVTVSTSGVVSGLEQMIGQIDVALAISLHAPNDKLRSEIMPINDRWNIEAFLEVVRRYIASSNANRGKVTVEYVLLDHVNDGTEHAHELAELLKGTPCKINLIPFNPYPGSPYKKPSNSRIDRFQKTLMQYEHTVTIRKTRGDDIDAACGQLVGDVIDRTKRTKAKQFDGQAIPVKTL : not soluble

Proceed to the following item.
Bench note: what soluble on expression in E. coli did PFLELDTNLPANRVPAGLEKRLCAAAASILGKPADRVNVTVRPGLAMALSGSTEPCAQLSISSIGVVGTAEDNRSHSAHFFEFLTKELALGQDRILIRFFPLESWQIGKIGTVMTFL show? soluble
